B1: CCNC (parent)
chain: QSSHYLQWILDKQDLLKERQKDLK

Variants of: B1
Test: protein stability index of a GFP-peptide fusion (GPS, HEK-293T) (PSI 1-6); higher = more stable;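 also: lentivirally expressed fusions sorted by FACS into six bins by GFP to DsRed ratio, PSI derived from sequencing read proportions per bin multiplied by bin number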
Settings: c terminus: a fixed tail appended
Assay Endpoint: protein stability index

• QSSHYWQWILDKQDLLKERQKDLK [L6W] = 2.96
• QSSGYLQWILDKQDLLKERQKDLK [H4G] = 3.03
• QSSHYLQWILDKQDLLDERQKDLK [K17D] = 2.94
• QQSHYLQWILDKQDLLKERQKDLK [S2Q] = 2.9
• QSSHELQWILDKQDLLKERQKDLK [Y5E] = 3.21
• QSSHSLQWILDKQDLLKERQKDLK [Y5S] = 4.56
• QSSHYLQWILDKQDLLKKRQKDLK [E18K] = 2.89
• QSSHHLQWILDKQDLLKERQKDLK [Y5H] = 3.93
